# targetEntity: T1, Human IL-11 (human, UniProt P20809 22-199); further: test concentration or dose not given here
# T1 sequence: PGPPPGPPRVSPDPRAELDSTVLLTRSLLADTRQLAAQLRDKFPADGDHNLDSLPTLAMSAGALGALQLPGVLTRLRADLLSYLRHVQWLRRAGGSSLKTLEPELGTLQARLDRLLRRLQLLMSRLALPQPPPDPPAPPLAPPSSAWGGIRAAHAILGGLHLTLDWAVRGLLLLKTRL
# procedureSummary: cell-based or functional assay
quantityKind: MMP2 production, Experiment 1 (human atrial fibroblasts + TGFB1) (ng/mL)

[
  {
    "binder": "YU100-A10 (antibody) EVQLVESGGGVVQPGRSLRLSCAASGFTFSSYGMHWVRQAPGKGLEWVAVISYDGSNKYYADSVKGRFTISRDNSKNTLYLQMNSLRAEDTAVYYCAKIGATDPLDYWGQGTLVTVSSGSASAPKLEEGEFSEARVLPVLTQPASVSGSPGQSITISCTGTSSDVGAYNYVSWYQQHPGKAPELMIYDVSNRPSGVSNRFSGSKSGNTASLTISGLQPEDEADYYCSSFTTSIAWVFGGGTKLTVL",
    "displayUnit": "ng/mL",
    "measuredNumber": 52.1
  },
  {
    "binder": "YU112-A07 (antibody) QVQLVESGGGVVQPGRSLRLSCAASGFTFSSYGMHWVRQAPGKGLEWVAVISYDGSNKYYTDSVKGRFTISRDNSKNTLYLQMNSLRAEDTAVYYCAKIGATDPLDYWGQGTLVTVSSGSASAPKLEEGEFSEARVQSALTQPRSVSGSPGQSVTISCTGTISDVGGYNYVSWYQQHPGKAPKLMIYDVTKRPSGVPDRFSGSKSGNTASLTISGLQAEDEAGYYCSSYAGSYTWVFGGGTELTVL",
    "displayUnit": "ng/mL",
    "measuredNumber": 50.7
  },
  {
    "binder": "YU100-E09 (antibody) QVQLVESGGGVVQPGRSLRLSCAASGFTFSSYAMHWVRQAPGKGLEWVAVISYDGSNKYYADSVKGRFTISRDNSKNTLYLQMNSLRAEDTAVYYCARIMGYDYGDYDVVDYWGQGTLVTVSSGSASAPKLEEGEFSEARVQSALTQPRSVSGSPGQSVTISCTGTSSDVGDYDYVSWYQQHPGKAPKLIIYDVTKRPSGIPDRFSGSKSGNTASLTISGLQAEDEADYYCCSYAGSYTWVFGRGTKLTVL",
    "displayUnit": "ng/mL",
    "measuredNumber": 51.7
  },
  {
    "binder": "YU100-E12 (antibody) QVQLVESGGGVVQPGRSLRLSCAASGFTFSSYGMHWVRQAPGKGLEWVAVISYDGSNKYYADSVKGRFTISRDNSKNTLYLQMNSLRAEDTAVYYCAKIGATDPLDYWGQGTLVTVSSGSASAPKLEEGEFSEARVQSALTQPASVSGSPGQSITISCTGTSSDVGGYNYVSWYQQHPGTAPKLMIYDVSNRPSGVSNRFSGSKSGNTASLTISGLQAEDEADYYCSSYTSSTTWVFGGGTKLTVL",
    "displayUnit": "ng/mL",
    "measuredNumber": 56
  },
  {
    "binder": "YU112-D08 (antibody) QVQLVESGGGVVQPGRSLRLSCAASGFTFSSYGMHWVRQAPGKGLEWVAVISYDGSNKYYADSVEGRFTISRDNSKNTLYLQMNSLRAEDTAVYYCAKIGATDPLDYWGQGTLVTVSSGSASAPKLEEGEFSEARVQSALTQPRSVSGSPGQSVTISCTGTISDVGGYNYVSWYQQHPGKAPKLMIYDVTKRPSGVPDRFSGSKSGNTASLTISGLQAEDEAGYYCSSYAGSYTWVFGGGTELTVL",
    "displayUnit": "ng/mL",
    "measuredNumber": 50.3
  },
  {
    "binder": "YU100-D02 (antibody) QVRLVQSGGGVVQPGRSLRLSCAASGFTFSSYGMHWVRQAPGKGLEWVAVISYDGSNKYYADSVKGRFTISRDNSKNTLYLQMNSLRAEDTAVYYCAKIGATDPLDYWGQGTLVTVSSGSASAPKLEEGEFSEARVQSALTQPRSVSGSPGQSVTISCTGTSGDVGTYNYVSWYQQHPGKAPKLMIFDVSKRPSGVPDRFSGSKSGNTASLTISGLQAEDEADYYCNSYAGSYTWVFGGGTKLTVLGQPKAAPSVTLFPPSS",
    "displayUnit": "ng/mL",
    "measuredNumber": 49.6
  },
  {
    "binder": "YU100-D11 (antibody) QVQLVQSGGGVVQPGRSLRLSCAASGFTFSSYGMHWVRQAPGKGLEWVAVISYDGSNKYYADSVKGRFTISRDNSKNTLYLQMNSLRAEDTAVYYCAKIGATDPLDYWGQGTLVTVSSGSASAPKLEEGEFSEARVQSALTQPRSVSGSPGQSVTISCTGTSSNVGGYNYVSWYQQHPGKAPKLMIYDVSKRPSGVPDRFSGSKSGNTASLTISGLQAEDEANYYCASYAGNYNWVFGGGTKLTVLGQPKAAPSVTLFPPSS",
    "displayUnit": "ng/mL",
    "measuredNumber": 51.2
  },
  {
    "binder": "YU112-H01 (antibody) QVQLVESGGGVVQPGRSLRLSCAASGFTFGSYGMHWVRQAPGKGLEWVAVISYDGSNKYYADSVKGRFTISRDNSKNTLYLQMNSLRAEDTAVYYCAKGSYYFDYWGQGTLVTVSSGSASAPKLEEGEFSEARVETTLTQSPGTLSLSPGERATLSCRASQSVSSSYLAWYQQKPGQAPRLLIYGASSRATGIPDRFSGSGSGTDFTLTISSLQPDDFATYYCQQSYSTPTWTFGQGTKVEIK",
    "displayUnit": "ng/mL",
    "measuredNumber": 51.9
  },
  {
    "binder": "YU100-E10 (antibody) QVQLVQSGGGVVQPGRSLRLSCAASGFTFSSYGMHWVRQAPGKGLEWVAVISYDGSNKYYADSVKGRFTISRDNSKNTLYLQMNSLRAEDTAVYYCAKIGATDPLDYWGQGTLVTVSSGSASAPKLEEGEFSEARVQSALTQPRSVSGSPGQSVTISCTGTSSDVGGYNYVSWYQQHPGKAPKLMIFDVSQRPSGVPDRFSASKSGNTASLTISGLQAEDEADYYCCSYAGSYTWVFGGGTKLTVL",
    "displayUnit": "ng/mL",
    "measuredNumber": 56.1
  },
  {
    "binder": "YU100-E07 (antibody) QVQLQESGGGVVQPGRSLRLSCAASGFTFSSYGMHWVRQAPGKGLEWVAVISYDGSNRYYADSVKGRFAISRDNSKNTLYLQMNSLRAEDTAVYYCAKIGATDPLDYWGQGTLVTVSSGSASAPKLEEGEFSEARVQSALTQPRSVSGSPGQSVTISCTGTSSDVGGYDYVSWYQQHPGKAPELMIYDVTKRPSGVADRFSGSKSGNTASLTISGLQAEDEADYYCCSYAGRYTWVFGGGTKLTVL",
    "displayUnit": "ng/mL",
    "measuredNumber": 52.1
  }
]
